Overview of recorded normalised cell viability for various molecules
System: NCI-H1944;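 further: CTB read-out in 384-well plates, triplicate wells, NPI normalised per plate against 1 µM phenylarsine oxide (0) and 0.1% DMSO (1) controls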
Assay: normalised cell viability (NPI; 0 = phenylarsine oxide control, 1 = DMSO control) (fraction of DMSO control); NCI-H1944 is a non-small cell lung cancer line; higher = more viable cells (less compound toxicity)
Conditions: glucocorticoid arm: hydrocortisone 2.75 uM co-treatment; compound 1 µM; 6 days
Structures can show the parent of a compound that is named as a salt. Whole data set: some 1,900 compounds, median “normalised cell viability (NPI; 0 = phenylarsine oxide control, 1 = DMSO control)” near 1, cut for the lowest 2% near 0.039. The full list was thinned out, with the lowest values kept by preference.
A bare number is all that is needed in reply.

| molecule | assay system | normalised cell viability |
| --- | --- | --- |
| OC[C@H]1O[C@@H](n2cnc3cc(Cl)c(Cl)cc32)[C@H](O)[C@@H]1O [5,6-Dichlorobenzimidazole riboside] | NCI-H1944 | 1.01 |
| Clc1ccc(N2CC3CCC(C2)N3)nn1 | NCI-H1944 | 1 |
| COc1cc(C(O)CN)ccc1O (racemic) [(±)-Normetanephrine hydrochloride] | NCI-H1944 | 0.997 |
| NC(CCP(=O)(O)O)C(=O)O (racemic) [(±)-2-Amino-4-phosphonobutyric acid] | NCI-H1944 | 0.988 |
| CCCN1CCC[C@@H](c2cccc(C#N)c2)C1 [S(-)-DS 121 hydrochloride] | NCI-H1944 | 1.02 |

Prompt: What does the data say about its normalised cell viability? Entry: Oc1cc2c(cc1O)[C@H]1c3ccccc3CN[C@@H]1CC2 (racemic) [Dihydrexidine hydrochloride]
Completion: 1

Prompt: What does the data say about its normalised cell viability? Entry: C=CCN1CCc2cccc3c2[C@H]1Cc1ccc(O)c(O)c1-3 [R(-)-N-Allylnorapomorphine hydrobromide]
Completion: 0.992

These measurements were taken from the supplement of paper PMC8285479.
